biological target: D(3) dopamine receptor (Homo sapiens); settings: Compound concentration 10 µM
Description: PDSP Primary Binding target: DRD3 - Compounds are tested at 10 uM concentration, plate are incubated at room temperature in the dark for 90 minutes. Reaction are stopped by vacuum filtration onto 0.3% polyethyleneimine soaked filter mats using Filtermate harvester. Scintilation cocktail is then melted onto microwave-dried filters on a hot plate and the radio activity is counted in Microbia counter.

>  <compound>
Clc1ccc(CCCOCCCN2CCCCC2)cc1

>  <inhibition>
47.4%

$$$$
>  <compound>
CCOC(=O)c1c(C)[nH]c2ccc3c(c12)CN1CCc2cc(OC)ccc2C1O3 (centres undefined)

>  <inhibition>
44.2%

$$$$
>  <compound>
Cc1c(C(=O)NC2CCCCC2)sc2nc3ccc(N)cc3n12

>  <inhibition>
36.7%

$$$$
>  <compound>
Nc1nc(NCCc2ccc(O)cc2)nc2nc(-c3ccco3)nn12

>  <inhibition>
19.9%

$$$$
>  <compound>
CC(C)NCC(O)c1ccc(N)c(C#N)c1 (centres undefined)

>  <inhibition>
-2.07%

$$$$
>  <compound>
Cc1cc(C(=O)N2Cc3cnn(C)c3Nc3ccccc32)ccc1CNC(=O)N1CCC[C@H]1C(=S)N1CCCN(C)CC1

>  <inhibition>
87.3%

$$$$
>  <compound>
COc1ccc(OC(F)(F)F)cc1CN[C@H]1CCCN[C@H]1c1ccccc1

>  <inhibition>
36.3%

$$$$
>  <compound>
C[C@H](CO)Nc1nc(SCc2cccc(Cl)c2F)nc2[nH]c(=O)sc12

>  <inhibition>
13.7%

$$$$
>  <compound>
Cc1c(F)cccc1NC(=O)Nc1ccc(Cl)c(S(=O)(=O)[C@H]2CCCNC2)c1O

>  <inhibition>
25.8%

$$$$

###

target: UniProt P28566; details: Compound concentration 10 µM
Sequence (P28566 whole entry): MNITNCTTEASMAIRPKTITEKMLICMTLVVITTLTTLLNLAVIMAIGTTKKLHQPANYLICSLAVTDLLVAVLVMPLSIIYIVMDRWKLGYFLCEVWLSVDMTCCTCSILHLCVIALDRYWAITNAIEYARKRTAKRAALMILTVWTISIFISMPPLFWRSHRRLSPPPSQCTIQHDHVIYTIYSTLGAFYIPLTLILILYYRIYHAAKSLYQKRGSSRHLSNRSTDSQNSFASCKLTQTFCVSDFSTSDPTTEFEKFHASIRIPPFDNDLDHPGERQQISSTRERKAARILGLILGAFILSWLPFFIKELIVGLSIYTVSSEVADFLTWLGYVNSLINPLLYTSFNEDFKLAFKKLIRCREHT
Description: PDSP Primary Binding target: HTR1E - Compounds are tested at 10 uM concentration, plate are incubated at room temperature in the dark for 90 minutes. Reaction are stopped by vacuum filtration onto 0.3% polyethyleneimine soaked filter mats using Filtermate harvester. Scintilation cocktail is then melted onto microwave-dried filters on a hot plate and the radio activity is counted in Microbia counter.

>  <molecule>
CS(=O)(=O)NC[C@H]1CC[C@H](Nc2nc3c(s2)CCSc2ccccc2-3)CC1

>  <inhibition>
6.22%

$$$$
>  <molecule>
NCCc1c[nH]c2ccc(C(N)=O)cc12

>  <inhibition>
65.6%

$$$$
>  <molecule>
C[C@@H](NCCc1ccc(O)cc1)[C@@H](O)c1ccc(O)cc1 (relative stereo)

>  <inhibition>
-0.11%

$$$$
>  <molecule>
COC1CCN(c2cccc(-c3cc(NC(C)=O)nc(-n4nc(C)cc4C)n3)n2)CC1

>  <inhibition>
15.2%

$$$$
>  <molecule>
O=C(O)CC/C=C\C[C@@H]1CO[C@H](c2ccccc2Cl)O[C@@H]1c1ccccc1O

>  <inhibition>
-6.67%

$$$$
>  <molecule>
CCc1nn(CCCN2CCN(c3cccc(Cl)c3)CC2)c(=O)n1CCOc1ccccc1

>  <inhibition>
-4.17%

$$$$
>  <molecule>
O=C(O)c1n[nH]c2c1C[C@H]1C[C@@H]21

>  <inhibition>
5.8%

$$$$
>  <molecule>
Clc1cccc(Cl)c1NC1=NCCN1

>  <inhibition>
9.4%

$$$$
>  <molecule>
CN1CCC(=C2c3ccccc3CC(=O)c3sccc32)CC1

>  <inhibition>
27.9%

$$$$
>  <molecule>
Nc1nc2c(c(N3CCNCC3)n1)CCC1=C2[C@@H]2CCCC[C@@H]2O1

>  <inhibition>
34.5%

$$$$
>  <molecule>
CN1C[C@H](C(=O)N[C@]2(C)O[C@@]3(O)[C@@H]4CCCN4C(=O)[C@H](Cc4ccccc4)N3C2=O)C[C@@H]2c3cccc4[nH]cc(c34)C[C@H]21

>  <inhibition>
76.1%

$$$$
>  <molecule>
CN1CC(=O)N=C1NC(=O)Nc1cccc(Cl)c1

>  <inhibition>
7.82%

$$$$
>  <molecule>
CN(C(=O)Cc1ccc(Cl)c(Cl)c1)C(CN1CCCC1)c1cccc(OCC(=O)O)c1 (centres undefined)

>  <inhibition>
-3.71%

$$$$
>  <molecule>
c1nc(CC2CCNCC2)c[nH]1

>  <inhibition>
9.31%

$$$$
>  <molecule>
Cc1nc2sccn2c(=O)c1CCN1CCC(=C(c2ccc(F)cc2)c2ccc(F)cc2)CC1

>  <inhibition>
80.8%

$$$$
>  <molecule>
CCCCC#Cc1nc(NC)c2ncn([C@@H]3O[C@H](CO)[C@@H](O)[C@H]3O)c2n1

>  <inhibition>
18.8%

$$$$
>  <molecule>
COc1cccc([C@@H](C)NCCCc2ccccc2Cl)c1

>  <inhibition>
4.34%

$$$$
>  <molecule>
CCCCCCCCCCCCCCCCOC[C@H](COP(=O)([O-])OCC[N+](C)(C)C)OC(C)=O

>  <inhibition>
11.7%

$$$$
>  <molecule>
O=C(Cc1ccccc1)Nc1nc2ccc(Cl)cc2c2nc(-c3ccco3)nn12

>  <inhibition>
7.51%

$$$$

Each recorded value in this set is attributed to ChEMBL document CHEMBL5442219.
